System: MDCK
Assay: Cytotoxicity against MDCK cells assessed as cell viability measured after overnight incubation by MTT assay
Assay type: cell-based
Conditions: Canis lupus familiaris
pIC50: −log10 of the molar value.
valueKind: pIC50

Please supply the value of reported pIC50 for the item Cc1[nH]c2ccccc2c1/C=N/Nc1nncc2ccccc12
< 3.70

Please supply the value of reported pIC50 for the item Oc1ccc(Cl)cc1/C=N\Nc1nncc2ccccc12
< 4.00

Please supply the value of reported pIC50 for the item Cn1ccnc1/C=N/Nc1nncc2ccccc12
< 3.70

Please supply the value of reported pIC50 for the item C(=N\Nc1nncc2ccccc12)/c1c[nH]c2ccccc12
< 3.70

Please supply the value of reported pIC50 for the item C(=N\Nc1nncc2ccccc12)/c1c(-c2ccccc2)[nH]c2ccccc12
< 3.70

====

Assay: Selectivity index, ratio of IC50 for MDCK cells to IC50 for Plasmodium falciparum 3D7
valueKind: Ratio IC50
Respond numerically, and do not add a unit to the figure.

Please supply the value of reported Ratio IC50 for the item Oc1ccc(Cl)cc1/C=N\Nc1nncc2ccccc12
60.75

Please supply the value of reported Ratio IC50 for the item C(=N\Nc1nncc2ccccc12)/c1c[nH]c2ccccc12
14.56

Please supply the value of reported Ratio IC50 for the item C(=N\Nc1nncc2ccccc12)/c1c(-c2ccccc2)[nH]c2ccccc12
57.31

Please supply the value of reported Ratio IC50 for the item Cc1[nH]c2ccccc2c1/C=N/Nc1nncc2ccccc12
16.42

Please supply the value of reported Ratio IC50 for the item Cn1ccnc1/C=N/Nc1nncc2ccccc12
57.22
